Test system: MDA-MB-468 cells
Assay: In vitro anticancer assay against MDA-MB-468 cells
Type: cell-based
Conditions: mean of the determinations, read-out: Mean IC50
Experimental: The anticancer activities of the novel asymmetrical marinopyrroles described herein were evaluated against MDA-MB-468 cells (Table 1). IC50 values are reported in μM.
measurement_type: IC50 (µM)
Numbers only, in µM.

List the reported IC50 of each compound below.
1. O=C(c1ccccc1O)c1[nH]c(Cl)c(Cl)c1-n1c(C(=O)c2ccccc2O)cc(Cl)c1Cl [(−)-Marinopyrrole A, reference compound]
2. O=C(c1ccccc1O)c1[nH]c(Cl)c(Cl)c1-n1c(C(=O)c2ccccc2O)cc(Cl)c1Cl (racemic) [Racemic Marinopyrrole A, reference compound]

Result:
1: 3.17; 2: 2.03

List the reported IC50 of each compound below.
1. O=C(c1ccccc1O)c1[nH]c(Cl)c(Cl)c1-n1c(C(=O)c2ccccc2O)cc(Cl)c1Cl [(+)-Marinopyrrole A, reference compound]
2. O=C(c1ccccc1O)c1[nH]c(Cl)c(Cl)c1-n1c(C(=O)c2ccc(F)cc2[O-])cc(Cl)c1Cl.[Na+]

Result:
[1.88, 3.15]

----------
tested on: MDA-MB-468 cells; experiment: In vitro anticancer assay against MDA-MB-468 cells; format: cell-based; conditions: estimated from % inhibition at 0.5, 5, 50 μM, read-out: Est. IC50
measurement_type: IC50 (µM)
Answers are plain numbers, in µM.

Example entries and their recorded answers appear below.
O=C(c1ccccc1O)c1[nH]c(Cl)c(Cl)c1-n1c(C(=O)c2ccc(F)cc2[O-])cc(Cl)c1Cl.[Na+]
2
O=C(c1ccccc1O)c1[nH]c(Cl)c(Cl)c1-n1c(C(=O)c2c(O)cccc2F)cc(Cl)c1Cl
12

Now consider a different molecule.
Q: Which IC50 is reported with MDA-MB-468 cells for this entry: O=C(c1ccccc1O)c1[nH]c(Cl)c(Cl)c1-n1c(C(=O)c2c([O-])cccc2F)cc(Cl)c1Cl.[Na+] ?
Result: 25

----------
tested on: MDA-MB-468 cells; assay: In vitro anticancer assay against MDA-MB-468 cells; format: cell-based; details: Homo sapiens, MDA-MB-468, mean of the determinations, read-out: Mean IC50
measurement_type: pIC50
Numbers only, as −log10 of the molar value.

Example entries and their recorded answers appear below.
O=C(c1ccccc1O)c1[nH]c(Cl)c(Cl)c1-n1c(C(=O)c2cc(Cl)c3ccccc3c2O)cc(Cl)c1Cl
5.72
COc1ccccc1C(=O)c1[nH]c(Cl)c(Cl)c1-n1c(C(=O)c2ccc(Cl)cc2OC)cc(Cl)c1Cl
4.88
O=C(c1ccccc1O)c1[nH]c(Cl)c(Cl)c1-n1c(C(=O)c2ccc(Cl)cc2O)cc(Cl)c1Cl
5.84
CCOC(=O)c1cc(Cl)c(Cl)n1-c1c(C(=O)c2ccccc2O)[nH]c(Cl)c1Cl
5.68
O=C(c1ccccc1O)c1[nH]c(Cl)c(Cl)c1-n1c(C(=O)c2cccc(Cl)c2O)cc(Cl)c1Cl
5.66
O=C(c1ccccc1O)c1[nH]c(Cl)c(Cl)c1-n1c(C(=O)c2ccc(F)cc2O)cc(Cl)c1Cl
5.98

List the reported pIC50 of each compound below.
1. O=C(c1ccccc1O)c1[nH]c(Cl)c(Cl)c1-n1c(C(=O)c2cc(F)ccc2O)cc(Cl)c1Cl
2. O=C(c1ccccc1O)c1[nH]c(Cl)c(Cl)c1-n1c(C(=O)c2cc3ccccc3c(Cl)c2O)cc(Cl)c1Cl
3. COc1ccccc1C(=O)c1[nH]c(Cl)c(Cl)c1-n1c(C(=O)c2cc(F)ccc2OC)cc(Cl)c1Cl

Result:
[5.67, 5.77, 4.96]

Each recorded value in this set is attributed to patent US9340501B2.
